Test system: UO-31
protocol: NCI tumour cell line growth inhibition, 48 h
The source made the active and inactive calls. Cut-off read from the data, not from the text of the source: active = GI50 up to about 1.1 µM and inactive = higher.
Outcome codes: active, inactive

{"molecule": "CC(=O)NNc1nc(C)c(C(/C=C/c2ccc(Cl)cc2)=N\\NS(=O)(=O)c2ccc(C)cc2)s1", "category_label": "inactive"}
{"molecule": "C=C1C(=O)OC2C1C(OC(=O)/C(C)=C/C)CC(O)(CCl)C1C(O)C=C(C)C21O (centres undefined)", "category_label": "inactive"}
{"molecule": "COc1cc(CN[C@H]2CCc3cc(OC)c(OC)c(OC)c3-c3ccc(SC)c(=O)cc32)cc(OC)c1", "category_label": "active"}
{"molecule": "CCc1ccc(COC(=O)C2=C(C)NC(C)=C(C(=O)OCc3ccc(CC)cn3)C2C2=COCCO2)nc1", "category_label": "inactive"}

###

Test system: CCRF-CEM
protocol: NCI tumour cell line growth inhibition, 48 h
Calls of active or inactive are those of the source. No stated cut-off is given here; in the data, active = GI50 up to about 1.1 µM and inactive = higher.
value_kind: GI50

{"compound": "NCC(=O)N[C@H]1c2ccsc2/C(=N/O)[C@H]1O", "observed_measurement": "> 100 µM (inactive)"}
{"compound": "O=C(CCc1cccc(O)c1)NCCCNC(=O)CCc1cccc(O)c1", "observed_measurement": "> 100 µM (inactive)"}
{"compound": "COc1ccc(N(c2ccc(C#N)cc2)c2ccc(C#N)cc2)cc1", "observed_measurement": "3.07 µM (inactive)"}
{"compound": "COc1ccc(N2C(=O)[C@@H]3[C@H](C2=O)c2[nH]c4ccccc4c2C2CCC(C(C)(C)C)C[C@@H]23)cc1 (stereo partly specified)", "observed_measurement": "15.3 µM (inactive)"}
{"compound": "Cc1ccc2c(c1)C(=O)C1(C2)Cc2ccc(C)cc2C1=O", "observed_measurement": "> 100 µM (inactive)"}
{"compound": "Cc1ccc(S(=O)(=O)NC(=O)NC(CCC(N)=O)C(=O)O)cc1 (stereo unspecified)", "observed_measurement": "> 100 µM (inactive)"}

###

System: SF-268
protocol: NCI tumour cell line growth inhibition, 48 h
Calls of active or inactive are those of the source. No stated cut-off is given here; in the data, active = GI50 up to about 1.1 µM and inactive = higher.
Below, each entry is listed alongside its reported GI50.
value_kind: GI50

{"compound": "CCOC(=O)/C(SC#N)=C(/N)N1CCCC1", "observed_measurement": "> 100 µM (inactive)"}
{"compound": "C/C(=N\\n1c(Cc2ccccc2)n[nH]c1=O)c1ccccc1", "observed_measurement": "> 100 µM (inactive)"}
{"compound": "O=C1/C(=C\\c2cccc(Oc3ccccc3)c2)SC(c2ccccc2)N1c1cc(Cl)ccc1Cl (stereo not given)", "observed_measurement": "22.2 µM (inactive)"}
{"compound": "CCCCOC(C)(C)/C=C/C(O)[C@](C)(O)[C@H]1[C@H](O)C[C@@]2(C)[C@@H]3CCc4c(cc(OC5OC(CO)C(O)C(O)C5O)c(O)c4C)C3(C)C(=O)C[C@]12C (stereo not given in full)", "observed_measurement": "> 100 µM (inactive)"}
{"compound": "Nc1c2c(nc3cc(F)c(F)cc13)CCC2", "observed_measurement": "58.5 µM (inactive)"}
{"compound": "O=[N+]([O-])c1ccc(Sc2c3ccccc3nc3ccccc23)cn1", "observed_measurement": "20.8 µM (inactive)"}
{"compound": "O=C(Cc1ccccc1)Nc1nc2ccc(Cl)cc2c2nc(-c3ccco3)nn12", "observed_measurement": "> 62.8 µM (inactive)"}
{"compound": "Cc1ccc(Oc2ccc(C(=O)c3cccc(C(=O)c4ccc(Oc5ccc(C)cc5)cc4)n3)cc2)cc1", "observed_measurement": "> 100 µM (inactive)"}
{"compound": "CCOC(CN(C)C(=O)Nc1ccc(Cl)c(Cl)c1)OCC", "observed_measurement": "> 10 µM (inactive)"}
{"compound": "CC(=O)Oc1cc(/C=C/c2ccc(O)cc2)cc(OC(C)=O)c1", "observed_measurement": "43.2 µM (inactive)"}
{"compound": "C=CC1(C)CCC2=C(CCC3C(C)(C(=O)OC)CCCC23C)C1=O (stereo not given)", "observed_measurement": "18.7 µM (inactive)"}
{"compound": "CCOC(=O)CSC(=O)NCCCl", "observed_measurement": "> 100 µM (inactive)"}
{"compound": "CC(C)CC1[C@@H](OCc2ccccc2)COS(=O)(=O)N1Cc1ccccc1 (stereo not given in full)", "observed_measurement": "6.64 µM (inactive)"}
{"compound": "Cc1ccc2c(O)cc(-c3sccc3C)nc2n1", "observed_measurement": "1.86 µM (inactive)"}
{"compound": "COc1ccc2c3c1O[C@H]1[C@@H](O)CC[C@@]4(O)[C@@H](C2)N(C)CC[C@]314", "observed_measurement": "> 100 µM (inactive)"}
{"compound": "CCCCCC(/C=C/c1ncccc1OCCCCCC(=O)O)=N\\NC1=NCCN1", "observed_measurement": "> 100 µM (inactive)"}
{"compound": "Cc1nc2ccc(F)cc2c2c1CCO2", "observed_measurement": "> 100 µM (inactive)"}
{"compound": "CCn1c(=O)c(C(=O)O)c(Cl)c2cc3c(cc21)OCO3", "observed_measurement": "> 100 µM (inactive)"}
{"compound": "Cc1c(S(=O)(=O)c2ccccc2)c(N)n(CCN(C)C)c1C", "observed_measurement": "> 100 µM (inactive)"}
{"compound": "COc1ccc(/C=C/c2cc(O)cc(OC3OC(CO)C(O)C(O)C3O)c2)cc1O (stereo not given)", "observed_measurement": "42.6 µM (inactive)"}
{"compound": "O=S(=O)(c1ccccc1)N1CCC1c1ccccc1 (stereo not given)", "observed_measurement": "87.1 µM (inactive)"}
{"compound": "C/C=C/C=C\\C=C/C(O)C(C)C(CCC(C)C1OC(=O)C=CC1C)OP(=O)(O)O (stereo not given)", "observed_measurement": "0.59 µM (active)"}
{"compound": "CN(C)CC1(C)CC/C(=C\\c2ccccc2)C1=O (stereo not given)", "observed_measurement": "> 100 µM (inactive)"}
{"compound": "Nc1ncnc2c1nc(Cl)n2[C@@H]1O[C@@H]2COP(=O)(O)O[C@H]2[C@H]1O [TOCLADESINE]", "observed_measurement": "32 µM (inactive)"}
{"compound": "O=[N+]([O-])C1C2C=CC(C2)[C@H]1c1ccc(Cl)cc1Cl (stereo not given in full)", "observed_measurement": "45.1 µM (inactive)"}
{"compound": "C=CCCC1(O)C(O)C(CO)O[C@H](O[C@@]2(CO)OC(CO)C(O)C2O)C1O (stereo not given in full)", "observed_measurement": "> 100 µM (inactive)"}
{"compound": "CCCNC(C#N)c1ccc(C(C#N)NCCC)cc1 (stereo not given)", "observed_measurement": "> 100 µM (inactive)"}
{"compound": "O=C1CCCC[C@H]1[C@H]1CCC[C@@H]([C@H]2CCCCC2=O)C1=O", "observed_measurement": "> 100 µM (inactive)"}
{"compound": "O=C1c2ccccc2-c2nnc(-c3ccccc3)cc21", "observed_measurement": "> 10 µM (inactive)"}
{"compound": "O=S(=O)(O)c1ccc2c(/N=N/c3cccc4ccccc34)c(O)c(S(=O)(=O)O)cc2c1", "observed_measurement": "> 100 µM (inactive)"}
{"compound": "CCCCC(=O)/C=c1/cc(C)[nH]c2cccc3cnn1c32", "observed_measurement": "> 100 µM (inactive)"}
{"compound": "CCc1nc2c(c(N(C)C)c1C(=O)OC)CCc1ccccc1-2", "observed_measurement": "47.1 µM (inactive)"}
{"compound": "C#C[C@]1(O)CC[C@H]2[C@@H]3CCC4=C/C(=N/OCCN(C)C)CC[C@]4(C)[C@H]3CC[C@@]21C", "observed_measurement": "49.5 µM (inactive)"}
{"compound": "Cc1c2ccncc2c(C)c2c1[nH]c1ccccc12 [ELLIPTECINE]", "observed_measurement": "0.698 µM (active)"}
{"compound": "CCOP(=O)(OCC)C(Nc1ccc(C(=O)O)cc1)c1ccc(C(Nc2ccc(C(=O)O)cc2)P(=O)(OCC)OCC)cc1 (stereo not given)", "observed_measurement": "> 100 µM (inactive)"}
{"compound": "CO[C@H]1C[C@H](O[C@H]2CC[C@@]3(C)[C@H](CC[C@@H]4[C@@H]3CC[C@]3(C)[C@@H](C5=CC(=O)OC5)CC[C@]43O)C2)O[C@H](C)[C@H]1O", "observed_measurement": "< 0.01 µM (active)"}
{"compound": "CN(C)c1cccc(/C=C(\\C#N)c2ccccc2)c1", "observed_measurement": "8.77 µM (inactive)"}
{"compound": "CC1=C(C(=O)CC(=O)C(=O)Nc2cccc(Cl)c2C)Sc2ccccc2N1", "observed_measurement": "> 100 µM (inactive)"}
{"compound": "CC(=NNC(=S)Nc1ccccc1C)c1cccc(C(C)=NNC(=S)Nc2ccccc2C)n1", "observed_measurement": "5.81 µM (inactive)"}
{"compound": "O=[N+]([O-])c1ccc(C(Cl)C(Cl)c2ccc(C(Cl)C(Cl)c3ccc([N+](=O)[O-])cc3[N+](=O)[O-])cc2)c([N+](=O)[O-])c1 (stereo not given)", "observed_measurement": "1.89 µM (inactive)"}
